Experiment: recombinant barcode read abundance after kanamycin selection (control-corrected) (log10(CPM+1)); higher = more efficient recombination; sequences stand for … in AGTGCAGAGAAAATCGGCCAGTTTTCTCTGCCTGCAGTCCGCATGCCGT…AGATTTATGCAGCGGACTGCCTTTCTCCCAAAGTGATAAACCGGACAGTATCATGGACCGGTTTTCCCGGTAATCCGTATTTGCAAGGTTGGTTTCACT; site = the 11-nt target
Label scheme for recombinant barcode read abundance (log10): lower than 0.1 is Not fulfilled, 0.1 and above is Fulfilled.

Previously resolved entries follow.
AACGTACCTTGGGTTCTAACCTGTTGCAG (site GTGAAGACTAA); Not fulfilled
ACGACTACTTGGGTTCTAACCTGTTGCCT (site ACGACTACTAG); Fulfilled
CGTCACACTTGGGTTCTAACCTGTTGCCT (site CGTCACACTAG); Not fulfilled
GGCCCGCCTTGGGTTCTAACCTGTTGCCT (site AGCCCGCCTAG); Not fulfilled
CAATCGTCTTGGGTTCTAACCTGTTGCTT (site GAATCTTCTAA); Not fulfilled

Check this sequence for recombinant barcode read abundance (log10) at or above 0.1: AGGGAGACTTGGGTTCTAACCTGTTGCTC (site AGGGAGACTGA) Fulfilled

Input GTGTGTCCTTGGGTTCTAACCTGTTGCCT (site GTGTGTGCTAG) Fulfilled

Input CGGTACCCTTGGGTTCTAACCTGTTGCGG (site CAGCACCCTCC) Fulfilled

----------
Experiment: recombinant UMI read abundance after kanamycin selection (control-corrected) (log10(CPM+1)); higher = more efficient recombination; extreme values may be limits of the assay; sequences stand for … in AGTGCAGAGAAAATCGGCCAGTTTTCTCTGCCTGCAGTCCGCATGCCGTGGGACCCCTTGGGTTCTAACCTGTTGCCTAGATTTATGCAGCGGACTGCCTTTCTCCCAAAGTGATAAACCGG…AGGTTGGTTTCACT; site = the 11-nt donor
Label scheme for recombinant UMI read abundance (log10): lower than 0.3 is not fulfilled, 0.3 and above is fulfilled.

Check this sequence for recombinant UMI read abundance (log10) at or above 0.3: AATTCTGCATGGACCGGTTTTCCCGGTAATCCGTATTTGGA (site AATTCTGCTTC) fulfilled

Input CACGGTCCATGGACCGGTTTTCCCGGTAATCCGTATTTGCA (site CACGGTCCTTG) fulfilled

Input CGGAGATCATGGACCGGTTTTCCCGGTAATCCGTATTTGCT (site CGGAAATCTAG) fulfilled

----------
Experiment: recombinant UMI read abundance after kanamycin selection (control-corrected) (log10(CPM+1)); higher = more efficient recombination; extreme values may be limits of the assay; sequences stand for … in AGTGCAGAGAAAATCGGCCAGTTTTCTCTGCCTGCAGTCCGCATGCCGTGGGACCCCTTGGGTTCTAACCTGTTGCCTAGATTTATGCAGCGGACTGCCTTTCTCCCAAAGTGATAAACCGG…AGGTTGGTTTCACT; site = the 11-nt donor
Measured recombinant UMI read abundance (log10), listed per entry.

Illustrative cases are given below, each with its answer.
AAGACTACATGGACCGGTTTTCCCGGTAATCCGTATTTGAC (site ACGACTACTGT); 0.383
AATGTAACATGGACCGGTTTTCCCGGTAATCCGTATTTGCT (site AATGTAACTAA); 0.0161

Quick one: recombinant UMI read abundance (log10) for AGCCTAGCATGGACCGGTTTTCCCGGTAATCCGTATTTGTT (site AGCCTAGCTAT) ? 0.0124

Input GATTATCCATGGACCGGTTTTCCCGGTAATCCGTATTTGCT (site GATTGTCCTAG) 0

Input TTAGTATCATGGACCGGTTTTCCCGGTAATCCGTATTTGAC (site ATAGTATCTGT) 2.12

Input CTCTACACATGGACCGGTTTTCCCGGTAATCCGTATTTGCC (site CTCTACACTAG) 0.72

Input GGCGCACCATGGACCGGTTTTCCCGGTAATCCGTATTTGCA (site GGCGCACCTTG) 0

Input TCCTACGCATGGACCGGTTTTCCCGGTAATCCGTATTTGAA (site TCCTACGCTTT) 0.0256

Input GAGCACACATGGACCGGTTTTCCCGGTAATCCGTATTTGAT (site GAGCCCACTAT) 0.0144

Input GCAGTTACATGGACCGGTTTTCCCGGTAATCCGTATTTGGA (site GCAGTTACTTC) 1.1

Input GGCGAGGCATGGACCGGTTTTCCCGGTAATCCGTATTTGTC (site GGCGAGGCTGA) 2.23

----------
Test: recombinant UMI read abundance after kanamycin selection (control-corrected) (log10(CPM+1)); higher = more efficient recombination; extreme values may be limits of the assay; sequences stand for … in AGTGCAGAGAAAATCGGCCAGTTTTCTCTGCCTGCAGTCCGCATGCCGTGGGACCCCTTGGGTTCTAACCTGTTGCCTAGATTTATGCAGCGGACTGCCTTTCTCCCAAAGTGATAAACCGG…AGGTTGGTTTCACT; site = the 11-nt donor
READOUT_LABEL: recombinant UMI read abundance (log10)
Would you mind answering with just the numeric figure?

GGGGAACCATGGACCGGTTTTCCCGGTAATCCGTATTTGCA (site GGGGTACCTTG); 0

Quick one: recombinant UMI read abundance (log10) for GATAGGACATGGACCGGTTTTCCCGGTAATCCGTATTTGTT (site GATAGGACTAA) ? 1.43

Input TTTACACCATGGACCGGTTTTCCCGGTAATCCGTATTTGAC (site TCTACACCTGT) 0

Input CCCCAAACATGGACCGGTTTTCCCGGTAATCCGTATTTGTA (site CCCCATACTTA) 0.102

Input CAGGCAGCATGGACCGGTTTTCCCGGTAATCCGTATTTGCT (site CAAGCAGCTAG) 1.66

----------
Measured recombinant barcode read abundance (log10), listed per entry.
Assay: recombinant barcode read abundance after kanamycin selection (control-corrected) (log10(CPM+1)); higher = more efficient recombination; sequences stand for … in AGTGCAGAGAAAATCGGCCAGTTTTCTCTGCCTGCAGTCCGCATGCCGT…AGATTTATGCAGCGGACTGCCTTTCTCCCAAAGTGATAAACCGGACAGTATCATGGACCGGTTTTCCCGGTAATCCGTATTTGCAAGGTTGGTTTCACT; site = the 11-nt target
Would you mind answering with just the numeric figure?

Illustrative cases are given below, each with its answer.
ACAAATACTTGGGTTCTAACCTGTTGCGG (site CGTTCACCTAT); 0.11
CTGAGTCCTTGGGTTCTAACCTGTTGCCA (site CTGAGTCCTTG); 0.424
TGGCAGTCTTGGGTTCTAACCTGTTGCCT (site TGGCAGGCTAG); 0.272
ATACCATCTTGGGTTCTAACCTGTTGCCT (site ATCCCATCTAG); 0.173
GAGGGCCCTTGGGTTCTAACCTGTTGCAG (site GAGGGCCCTCA); 2.07
CTAGGACCTTGGGTTCTAACCTGTTGCCA (site CTAGGACCTTG); 1.27
CATTTCCCTTGGGTTCTAACCTGTTGCTT (site CATTTCCCTAA); 0.122
CGGACGACTTGGGTTCTAACCTGTTGCCT (site CGGACGCCTAG); 0.0677

Quick one: recombinant barcode read abundance (log10) for GAGTCTACTTGGGTTCTAACCTGTTGCTT (site GATTCTACTAA) ? 0.0603

Input TGTCAAGCTTGGGTTCTAACCTGTTGCCT (site TGTCAAACTAG) 0.574

----------
Test: recombinant barcode read abundance after kanamycin selection (control-corrected) (log10(CPM+1)); higher = more efficient recombination; sequences stand for … in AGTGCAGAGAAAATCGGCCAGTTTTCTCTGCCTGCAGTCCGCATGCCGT…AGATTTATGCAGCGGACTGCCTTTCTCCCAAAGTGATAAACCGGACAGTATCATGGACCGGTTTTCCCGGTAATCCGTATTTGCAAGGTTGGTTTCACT; site = the 11-nt target
Label scheme for recombinant barcode read abundance (log10): lower than 0.2 is F, 0.2 and above is T.

CTATGTGCTTGGGTTCTAACCTGTTGCGT (site CTATGTGCTAG); F
GGCGATCCTTGGGTTCTAACCTGTTGCCT (site GACGATCCTAG); F
TAGCATGCTTGGGTTCTAACCTGTTGCAT (site TAGCATGCTGT); T

Check this sequence for recombinant barcode read abundance (log10) at or above 0.2: TAGGATACTTGGGTTCTAACCTGTTGCAG (site TAGGATACTAT) T

Input CCTAAGACTTGGGTTCTAACCTGTTGCCT (site CCTAAGACTAG) T

----------
Test: recombinant UMI read abundance after kanamycin selection (control-corrected) (log10(CPM+1)); higher = more efficient recombination; extreme values may be limits of the assay; sequences stand for … in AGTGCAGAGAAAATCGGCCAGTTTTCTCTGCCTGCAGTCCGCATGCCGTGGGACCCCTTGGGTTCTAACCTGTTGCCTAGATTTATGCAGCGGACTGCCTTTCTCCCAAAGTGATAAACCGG…AGGTTGGTTTCACT; site = the 11-nt donor
Measured recombinant UMI read abundance (log10), listed per entry.
Would you mind answering with just the numeric figure?

Illustrative cases are given below, each with its answer.
GTAGGTACATGGACCGGTTTTCCCGGTAATCCGTATTTGGC (site GTAGGTACTGA); 1.79
ATGTGTGCATGGACCGGTTTTCCCGGTAATCCGTATTTGAC (site ATGTGTGCTGT); 2.78

Now consider the entry below.
Quick one: recombinant UMI read abundance (log10) for GGCCACACATGGACCGGTTTTCCCGGTAATCCGTATTTGTT (site GGCCACGCTAA) ? 0.0159
